We begin with a simple list: items and their reported IC50.
# Measured Target: Genome polyprotein (Coxsackievirus B3 (strain Nancy))
# Test Name: Inhibition of recombinant Coxsackievirus B3 3C protease expressed in Escherichia coli BL21 (DE3) preincubated for 5 mins followed by addition of NMA-EALFQGPPVK-DNP-rrr-NH2 as substrate measured up to 2 hrs by FRET-based enzyme assay

Sample answers from the record:
[[record]]
molecule = "CCCCC(=O)Oc1c(O)ccc(/C=N/NC(=O)c2ccc(O)cc2)c1O"
result = "1210 nM"

[[record]]
molecule = "O=C(N/N=C/c1ccc(O)c(O)c1O)c1ccc(Br)cc1"
result = "460 nM"

[[record]]
molecule = "CS(=O)(=O)c1ccc(C(=O)N/N=C/c2ccc(O)c(O)c2O)cc1"
result = "890 nM"

[[record]]
molecule = "Cc1cc(C(=O)N[C@H](C(=O)N[C@@H](Cc2ccc(F)cc2)C(=O)N/N=C/c2ccc(O)c(O)c2O)C(C)C)no1"
result = "610 nM"

[[record]]
molecule = "CS(=O)(=O)c1ccc(/C=N/NC(=O)c2ccccc2)cc1"
result = "> 50000 nM"


IN: Tell me IC50 reported for "O=C(Cc1ccccc1)N/N=C/c1ccc(O)c(O)c1O"
OUT: 750 nM

IN: Supply measured IC50 of "O=C(NNCc1ccc(O)c(O)c1O)c1ccc(Cl)cc1" in your reply.
OUT: 430 nM

IN: Dear colleague, please send me the reported IC50 for "O=C(N/N=C/c1cc(O)ccc1O)c1ccccc1" when you can.
OUT: 5510 nM

IN: Indicate its recorded IC50; the molecule in question is "O=C(N/N=C/c1cccc(O)c1)c1ccccc1"
OUT: > 50000 nM

IN: Given the molecule "O=C(NNCc1ccc(O)c(O)c1O)c1ccc(Br)cc1" , write its reported IC50.
OUT: 210 nM

IN: Retrieve IC50 measured for CC(C)(C)OC(=O)NC(Cc1ccc(F)cc1)C(=O)N/N=C/c1ccc(O)c(O)c1O (centres undefined) and print it.
OUT: 890 nM

IN: Determine its reported IC50: "O=C(Cc1ccc(F)cc1)N/N=C/c1ccc(O)c(O)c1O"
OUT: 660 nM

IN: Return value of IC50 for input "O=C(Cc1ccc(F)cc1)NNCc1ccc(O)c(O)c1O" , no commentary.
OUT: 340 nM

====

Form field: IC50 (one value per entry).
# Measured Target: Genome polyprotein (Coxsackievirus B3 (strain Nancy), UniProt P03313)
# Sequence (P03313 1541-1723 limits assumed): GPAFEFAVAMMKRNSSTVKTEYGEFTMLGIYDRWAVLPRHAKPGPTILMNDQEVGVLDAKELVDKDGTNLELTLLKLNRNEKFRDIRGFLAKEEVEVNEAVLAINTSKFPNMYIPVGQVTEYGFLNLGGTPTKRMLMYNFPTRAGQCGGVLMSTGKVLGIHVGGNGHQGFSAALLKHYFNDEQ
# Test Name: Inhibition of recombinant Coxsackievirus B3 3C protease expressed in Escherichia coli BL21 (DE3) preincubated for 5 mins followed by addition of NMA-EALFQGPPVK-DNP-rrr-NH2 as substrate measured up to 2 hrs by FRET-based enzyme assay
The reply should contain only the number, in nM.

[[record]]
cpd_smiles = "O=C(N/N=C/c1ccc(O)c(O)c1O)c1ccccc1"
measured_target = "Genome polyprotein (Coxsackievirus B3 (strain Nancy), UniProt P03313)"
number = 970

[[record]]
cpd_smiles = "O=C(CCc1ccc(O)cc1)N/N=C/c1ccc(O)c(O)c1O"
measured_target = "Genome polyprotein (Coxsackievirus B3 (strain Nancy), UniProt P03313)"
number = 120

[[record]]
cpd_smiles = "O=C(CCCCc1ccc(F)cc1)N/N=C/c1ccc(O)c(O)c1O"
measured_target = "Genome polyprotein (Coxsackievirus B3 (strain Nancy), UniProt P03313)"
number = 470


IN: Tell me its IC50 given "O=C(CCCCc1ccccc1)NNCc1ccc(O)c(O)c1O" as the entry.
OUT: 190

IN: Give me measured IC50, please, for this compound: "O=C(CCc1ccccc1)N/N=C/c1ccc(O)c(O)c1O"
OUT: 690

IN: Determine from records and report IC50 for "O=C(CCCc1ccccc1)N/N=C/c1ccc(O)c(O)c1O"
OUT: 710

IN: Fill in IC50 for record "O=C(NNCc1ccc(O)c(O)c1O)c1ccc(O)cc1"
OUT: 170

IN: State its IC50: "O=C(NNCc1c(O)cc(O)cc1O)c1ccccc1"
OUT: 770

IN: Supply recorded IC50 for "O=C(N/N=C/c1ccc(O)c(O)c1O)c1ccc(F)cc1" here.
OUT: 870
